Molecular target: T1, LINGO-Fc (human, UniProt Q96FE5 40-538, limits assumed)
T1 construct: not shown: Fc part
T1 sequence: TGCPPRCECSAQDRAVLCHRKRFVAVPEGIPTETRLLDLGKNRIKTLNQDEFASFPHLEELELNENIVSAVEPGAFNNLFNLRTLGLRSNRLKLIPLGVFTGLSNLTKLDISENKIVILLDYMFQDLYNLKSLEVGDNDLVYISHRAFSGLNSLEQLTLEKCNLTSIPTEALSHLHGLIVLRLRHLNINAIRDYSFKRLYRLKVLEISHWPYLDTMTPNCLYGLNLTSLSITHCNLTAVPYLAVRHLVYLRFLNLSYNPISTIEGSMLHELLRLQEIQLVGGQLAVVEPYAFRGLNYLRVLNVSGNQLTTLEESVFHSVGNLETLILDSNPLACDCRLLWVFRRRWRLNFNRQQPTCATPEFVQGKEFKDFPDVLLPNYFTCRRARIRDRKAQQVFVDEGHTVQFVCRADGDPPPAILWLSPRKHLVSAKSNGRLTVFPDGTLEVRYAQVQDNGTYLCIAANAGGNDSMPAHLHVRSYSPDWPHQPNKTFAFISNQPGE
Test: direct ELISA on LINGO-Fc; half-maximal concentration relative to Li33;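 note: direct binding ELISA on plates coated with LINGO-Fc, concentration giving half of saturating binding, expressed as a ratio to the same value for the comparator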
Parameter: ELISA Ratio. Scope: all listed entries.
The reply should be a number in ratio, with the unit left off.

>>> reported_measurement("Li33 variant W94V (SEQ ID NO:171) (antibody, V domains shown, unchanged chain from WT Li33) VH: EVQLLESGGGLVQPGGSLRLSCAASGFTFSIYPMFWVRQAPGKGLEWVSWIGPSGGITKYADSVKGRFTISRDNSKNTLYLQMNSLRAEDTATYYCAREGHNDWYFDLWGRGTLVTVSS VL: DIQMTQSPGTLSLSPGERATLSCRASQSVSSYLAWYQQKPGQAPRLLIYDASNRATGIPARFSGSGSGTEFTLTISSLQSEDFAVYYCQQYDKVPLTFGGGTKVEIKR")
1.4

Please give the documented ELISA Ratio of Li33 variant W94L (SEQ ID NO:167) (antibody, V domains shown, unchanged chain from WT Li33) VH: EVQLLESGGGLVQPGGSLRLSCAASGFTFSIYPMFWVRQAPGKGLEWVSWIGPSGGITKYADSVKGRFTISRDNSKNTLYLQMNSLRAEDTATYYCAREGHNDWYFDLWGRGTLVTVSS VL: DIQMTQSPGTLSLSPGERATLSCRASQSVSSYLAWYQQKPGQAPRLLIYDASNRATGIPARFSGSGSGTEFTLTISSLQSEDFAVYYCQQYDKLPLTFGGGTKVEIKR 0.6

Please give the documented ELISA Ratio of Li33 variant I57L (SEQ ID NO:163) (antibody, V domains shown, unchanged chain from WT Li33) VH: EVQLLESGGGLVQPGGSLRLSCAASGFTFSIYPMFWVRQAPGKGLEWVSWIGPSGGLTKYADSVKGRFTISRDNSKNTLYLQMNSLRAEDTATYYCAREGHNDWYFDLWGRGTLVTVSS VL: DIQMTQSPGTLSLSPGERATLSCRASQSVSSYLAWYQQKPGQAPRLLIYDASNRATGIPARFSGSGSGTEFTLTISSLQSEDFAVYYCQQYDKWPLTFGGGTKVEIKR 0.7
